# Measured On: RFVT1 (Homo sapiens)
# Sequence (Q9NWF4 whole entry): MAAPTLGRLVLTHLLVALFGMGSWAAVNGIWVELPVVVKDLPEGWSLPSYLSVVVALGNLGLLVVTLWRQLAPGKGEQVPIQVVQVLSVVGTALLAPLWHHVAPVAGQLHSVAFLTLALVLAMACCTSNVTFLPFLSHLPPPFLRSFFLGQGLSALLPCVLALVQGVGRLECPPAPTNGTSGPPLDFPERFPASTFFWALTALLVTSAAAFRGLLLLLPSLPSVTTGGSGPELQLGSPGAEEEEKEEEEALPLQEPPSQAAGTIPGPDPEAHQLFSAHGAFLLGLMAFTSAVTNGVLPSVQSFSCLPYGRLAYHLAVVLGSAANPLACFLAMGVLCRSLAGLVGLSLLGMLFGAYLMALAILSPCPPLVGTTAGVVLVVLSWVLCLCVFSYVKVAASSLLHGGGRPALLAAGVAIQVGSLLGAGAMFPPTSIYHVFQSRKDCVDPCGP
Quantity Measured: pIC50
Reminder that pIC50 is minus the log10 of a molar concentration.

Lab request: please report pIC50 under test system RFVT1 (Homo sapiens) for CC1=NN(c2ccc(C)c(C)c2)C(=O)/C1=N\Nc1cccc(-c2cccc(C(=O)O)c2)c1O [Eltrombopag]
4.35

====

# Format: in vivo, human
# Measurement Conditions: both, human, plasma, oral, 10 mg
Quantity Measured: AUC (µg·h/mL)
Numbers only; they are read as µg·h/mL.

Please give the measured AUC for this compound: `Cc1cc2nc3c(=O)[nH]c(=O)nc-3n(C[C@H](O)[C@H](O)[C@H](O)CO)c2cc1C`
0.0117

====

# Type: in vivo, human
# Measurement Conditions: both, human, plasma, oral, AUC0−4, rosuvastatin + eltrombopag arm; geometric mean (90% CI)
Quantity Measured: AUC(0-t) (ng·h/mL)
Respond with the bare value in ng·h/mL.

Can you share its AUC(0-t)? I mean this molecule: O=C(O)c1c(O)c(Cl)cc(Cl)c1O [DCDBA, 3,5‐dichloro‐2,6‐dihydroxybenzoic acid]
2.97

Which value of AUC(0-t) has been reported for `O=C(O)c1c(O)c(Cl)cc(Br)c1O` in the records?
2.1

Can you look up the measured AUC(0-t) of CC(C)c1nc(N(C)S(C)(=O)=O)nc(-c2ccc(F)cc2)c1/C=C/[C@@H](O)C[C@@H](O)CC(=O)O [Rosuvastatin, reference compound] for me?
25

// AUC(0-t) lookup, key: `Cc1cc2nc3c(=O)[nH]c(=O)nc-3n(C[C@H](O)[C@H](O)[C@H](O)CO)c2cc1C`
10.2

====

# Format: in vivo, human
# Measurement Conditions: both, human, plasma, oral, 10 mg
I'd be grateful if you could share measured C0 at 0 h for these entries.
// units = ng/mL; emit number, no label

Suppose we examine the molecule O=C(O)c1c(O)c(Cl)cc(Cl)c1O [DCDBA, 3,5‐dichloro‐2,6‐dihydroxybenzoic acid] ; what C0 at 0 h value has been reported?
0.73

I am curious: what C0 at 0 h value has been reported for O=C(O)c1c(O)c(Cl)cc(Br)c1O [BCDBA] ?
0.64

Data request, read-out C0 at 0 h, for Cc1cc2nc3c(=O)[nH]c(=O)nc-3n(C[C@H](O)[C@H](O)[C@H](O)CO)c2cc1C [Riboflavin]
2.72

====

Quantity Measured: IC50 (nM)
Give the quantity in nM, number only.

Entry CC1=NN(c2ccc(C)c(C)c2)C(=O)/C1=N\Nc1cccc(-c2cccc(C(=O)O)c2)c1O [Eltrombopag] , system OATP1B1 (Homo sapiens, UniProt Q9Y6L6): what IC50 was measured?
1400

====

# Type: in vivo, human
# Measurement Conditions: both, human, plasma, oral
Quantity Measured: AUC(0-inf)
Provide the measurement as a number trailed by its unit.

What does the data say about its AUC(0-inf)? Entry: CC(C)c1nc(N(C)S(C)(=O)=O)nc(-c2ccc(F)cc2)c1/C=C/[C@@H](O)C[C@@H](O)CC(=O)O [Rosuvastatin, reference compound]
116 ng·h/mL

====

# Format: in vivo, human
# Measurement Conditions: both, human, plasma, oral, AUC0−24, rosuvastatin + eltrombopag arm; geometric mean (90% CI)
Would you mind telling me the reported AUC(0-t) of each entry?
Just the number in ng·h/mL, nothing appended.

If you can, please state the reported AUC(0-t) value of O=C(O)c1c(O)c(Cl)cc(Cl)c1O [DCDBA, 3,5‐dichloro‐2,6‐dihydroxybenzoic acid] .
19.2

Field request: AUC(0-t) | item: Cc1cc2nc3c(=O)[nH]c(=O)nc-3n(C[C@H](O)[C@H](O)[C@H](O)CO)c2cc1C [Riboflavin]
65.6

====

For each entry below, report its Cmax value.
# Type: in vivo, human
# Measurement Conditions: both, human, plasma, oral, 10 mg
Respond with the bare value in ng/mL.

Looking for the measured Cmax of `Cc1cc2nc3c(=O)[nH]c(=O)nc-3n(C[C@H](O)[C@H](O)[C@H](O)CO)c2cc1C` , can you help?
4.16

// Cmax lookup, key: `O=C(O)c1c(O)c(Cl)cc(Br)c1O`
0.7

Name the reported Cmax value associated with the molecule O=C(O)c1c(O)c(Cl)cc(Cl)c1O [DCDBA, 3,5‐dichloro‐2,6‐dihydroxybenzoic acid]
1.03

Requested field: Cmax. Item: CC(C)c1nc(N(C)S(C)(=O)=O)nc(-c2ccc(F)cc2)c1/C=C/[C@@H](O)C[C@@H](O)CC(=O)O [Rosuvastatin, reference compound]
5.4

====

For each entry below, report its Cmax value.
# Format: in vivo, human
# Measurement Conditions: both, human, plasma, oral
Numbers only here, please. The scale is ng/mL.

Item `O=C(O)c1c(O)c(Cl)cc(Br)c1O` has what recorded Cmax?
0.7

Please give the measured Cmax for this compound: `Cc1cc2nc3c(=O)[nH]c(=O)nc-3n(C[C@H](O)[C@H](O)[C@H](O)CO)c2cc1C`
3.61

I have this compound here, O=C(O)c1c(O)c(Cl)cc(Cl)c1O [DCDBA, 3,5‐dichloro‐2,6‐dihydroxybenzoic acid] , and I need its recorded Cmax.
0.98

# get_value(readout='Cmax', item= CC(C)c1nc(N(C)S(C)(=O)=O)nc(-c2ccc(F)cc2)c1/C=C/[C@@H](O)C[C@@H](O)CC(=O)O [Rosuvastatin, reference compound] )
10.9

====

Quantity Measured: pIC50
As a rule, pIC50 stands for the negative log10 of the concentration, concentration in M.

Find pIC50 (OATP1B3 (Homo sapiens, UniProt Q9NPD5)) for the entry CC1=NN(c2ccc(C)c(C)c2)C(=O)/C1=N\Nc1cccc(-c2cccc(C(=O)O)c2)c1O [Eltrombopag]
5.40

====

Quantity Measured: IC50 (µM)
Value expressed in µM; do not type the unit.

Enter reported IC50 observed with UniProtKB Q9HAB3 for CC1=NN(c2ccc(C)c(C)c2)C(=O)/C1=N\Nc1cccc(-c2cccc(C(=O)O)c2)c1O [Eltrombopag]
Sequence (Q9HAB3 whole entry): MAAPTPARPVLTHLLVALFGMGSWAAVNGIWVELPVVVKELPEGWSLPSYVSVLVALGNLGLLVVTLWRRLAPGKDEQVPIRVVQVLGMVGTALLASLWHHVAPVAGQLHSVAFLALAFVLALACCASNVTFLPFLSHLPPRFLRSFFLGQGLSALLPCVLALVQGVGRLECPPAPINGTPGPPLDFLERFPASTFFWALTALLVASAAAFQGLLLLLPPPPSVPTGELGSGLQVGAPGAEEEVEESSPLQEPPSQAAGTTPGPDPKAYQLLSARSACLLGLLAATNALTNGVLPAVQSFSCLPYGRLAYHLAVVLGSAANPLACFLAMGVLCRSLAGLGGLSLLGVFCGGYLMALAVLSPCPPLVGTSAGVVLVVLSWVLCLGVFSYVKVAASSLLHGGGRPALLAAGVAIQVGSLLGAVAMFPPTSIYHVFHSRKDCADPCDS
28.2

====

# Type: in vivo, human
# Measurement Conditions: both, human, plasma, oral, 10 mg
Quantity Measured: CL/F (mL/min/kg)
Return type: number; implicit unit mL/min/kg.

Look at this molecule and give its reported CL/F. CC(C)c1nc(N(C)S(C)(=O)=O)nc(-c2ccc(F)cc2)c1/C=C/[C@@H](O)C[C@@H](O)CC(=O)O [Rosuvastatin, reference compound]
32.7

====

Assign AUC(0-t) to each entry below.
# Assay type: in vivo, human
# Measurement Conditions: both, human, plasma, oral, 10 mg, AUC0−4, rosuvastatin alone arm; geometric mean (90% CI)
// units = ng·h/mL; emit number, no label

Quick one: AUC(0-t) of Cc1cc2nc3c(=O)[nH]c(=O)nc-3n(C[C@H](O)[C@H](O)[C@H](O)CO)c2cc1C [Riboflavin] ?
10.6

# AUC(0-t) lookup, item O=C(O)c1c(O)c(Cl)cc(Cl)c1O [DCDBA, 3,5‐dichloro‐2,6‐dihydroxybenzoic acid]
3.02

Endpoint output: AUC(0-t) of O=C(O)c1c(O)c(Cl)cc(Br)c1O [BCDBA] . Value?
2.13

Requested read-out: AUC(0-t). Entry: CC(C)c1nc(N(C)S(C)(=O)=O)nc(-c2ccc(F)cc2)c1/C=C/[C@@H](O)C[C@@H](O)CC(=O)O [Rosuvastatin, reference compound]
11.8

====

Quantity Measured: IC50 (µM)
# value in µM; strip the unit string

// fetch BCRP (Homo sapiens, UniProt Q9UNQ0) IC50 for `CC1=NN(c2ccc(C)c(C)c2)C(=O)/C1=N\Nc1cccc(-c2cccc(C(=O)O)c2)c1O`
4.9

====

# Format: in vivo, human
# Measurement Conditions: both, human, plasma, oral, 10 mg, mean riboflavin AUC0−4, fasted state; rosuvastatin alone arm
Quantity Measured: AUC(0-t) (ng·h/mL)
Express it in ng·h/mL; write the number only.

What does the record list as AUC(0-t) for `Cc1cc2nc3c(=O)[nH]c(=O)nc-3n(C[C@H](O)[C@H](O)[C@H](O)CO)c2cc1C` ?
10.6

====

# Format: in vivo, human
# Measurement Conditions: both, human, plasma, oral
Quantity Measured: half-life (min)
Answer format: numeric, min implied, no suffix.

half-life for CC(C)c1nc(N(C)S(C)(=O)=O)nc(-c2ccc(F)cc2)c1/C=C/[C@@H](O)C[C@@H](O)CC(=O)O [Rosuvastatin, reference compound] ?
528
